experimental_target: human TLR8 (Homo sapiens, UniProt Q9NR97)
Sequence (Q9NR97 27-1041): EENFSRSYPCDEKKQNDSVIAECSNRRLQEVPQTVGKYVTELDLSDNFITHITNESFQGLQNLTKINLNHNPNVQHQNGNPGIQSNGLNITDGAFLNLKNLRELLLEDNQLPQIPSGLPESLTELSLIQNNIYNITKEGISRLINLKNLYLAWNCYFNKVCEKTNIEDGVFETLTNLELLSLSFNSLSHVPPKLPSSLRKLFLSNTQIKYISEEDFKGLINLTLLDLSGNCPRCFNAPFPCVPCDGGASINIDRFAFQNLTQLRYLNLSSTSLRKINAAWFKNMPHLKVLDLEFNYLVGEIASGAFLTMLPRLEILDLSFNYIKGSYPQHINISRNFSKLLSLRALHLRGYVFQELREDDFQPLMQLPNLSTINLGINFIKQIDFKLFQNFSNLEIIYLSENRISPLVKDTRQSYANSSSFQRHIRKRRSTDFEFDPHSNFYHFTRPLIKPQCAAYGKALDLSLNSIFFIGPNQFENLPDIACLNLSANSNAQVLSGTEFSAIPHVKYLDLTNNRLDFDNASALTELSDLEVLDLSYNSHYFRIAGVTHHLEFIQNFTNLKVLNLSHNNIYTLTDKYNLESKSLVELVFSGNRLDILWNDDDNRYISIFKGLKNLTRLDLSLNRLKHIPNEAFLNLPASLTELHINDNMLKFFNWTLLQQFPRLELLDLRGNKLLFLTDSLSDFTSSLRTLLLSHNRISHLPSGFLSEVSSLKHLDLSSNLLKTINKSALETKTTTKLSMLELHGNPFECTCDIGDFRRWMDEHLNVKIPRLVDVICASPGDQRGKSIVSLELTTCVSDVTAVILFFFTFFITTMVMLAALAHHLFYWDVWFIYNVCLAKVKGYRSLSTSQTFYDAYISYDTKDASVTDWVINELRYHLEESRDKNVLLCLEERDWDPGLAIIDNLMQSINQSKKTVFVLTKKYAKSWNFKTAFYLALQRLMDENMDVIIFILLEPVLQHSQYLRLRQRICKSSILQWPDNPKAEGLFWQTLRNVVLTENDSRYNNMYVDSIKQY
assay_name: HEK293-Blue-hTLR-8 cells assay (SEAP reporter, R848 stimulation)
reported_conditions: HEK293-Blue-hTLR8 cells, R848, 20 hrs; lowest tested concentration 0.0032
pIC50: −log10 of the molar value.
property_measured: pIC50

molecule: C[C@H]1C[C@@H](N2Cc3ccc(N4CCNCC4)cc3C2)CN(c2ccc(C#N)c3ncccc23)C1
pIC50: > 8.49
--
molecule: C[C@H]1C[C@@H](NCc2cnc(N3CCNCC3)cn2)CN(c2ccc(C#N)c3ncccc23)C1
pIC50: > 8.49
--
molecule: C[C@H]1C[C@@H](NCc2cnc(N3CCNCC3)nc2)CN(c2ccc(C#N)c3ncccc23)C1
pIC50: > 8.49
--
molecule: C[C@H]1C[C@@H](NCc2cnc(N3CCN[C@H](C)C3)nc2)CN(c2ccc(C#N)c3ncccc23)C1
pIC50: > 8.49
--
molecule: C[C@H]1C[C@@H](NCc2ccc3c(c2)CCNC3)CN(c2ccc(C#N)c3ncccc23)C1
pIC50: > 8.49
--
molecule: C[C@H]1C[C@@H](NCc2ccc(N3CCNCC3)cc2F)CN(c2ccc(C#N)c3ncccc23)C1
pIC50: > 8.49
--
molecule: C[C@H]1C[C@@H](NCc2cnc(N3CCN[C@@H](C)C3)nc2)CN(c2ccc(C#N)c3ncccc23)C1
pIC50: > 8.49

Consider the additional molecule presented here.
Entry under review: CC(N[C@@H]1C[C@H](C)CN(c2ccc(C#N)c3ncccc23)C1)c1ccc(N2CCNCC2)cc1 (some centres unmarked) . Reported pIC50?
≥ 8.52

---

experimental_target: human TLR7 (Homo sapiens, UniProt Q9NYK1)
Sequence (Q9NYK1 27-1049): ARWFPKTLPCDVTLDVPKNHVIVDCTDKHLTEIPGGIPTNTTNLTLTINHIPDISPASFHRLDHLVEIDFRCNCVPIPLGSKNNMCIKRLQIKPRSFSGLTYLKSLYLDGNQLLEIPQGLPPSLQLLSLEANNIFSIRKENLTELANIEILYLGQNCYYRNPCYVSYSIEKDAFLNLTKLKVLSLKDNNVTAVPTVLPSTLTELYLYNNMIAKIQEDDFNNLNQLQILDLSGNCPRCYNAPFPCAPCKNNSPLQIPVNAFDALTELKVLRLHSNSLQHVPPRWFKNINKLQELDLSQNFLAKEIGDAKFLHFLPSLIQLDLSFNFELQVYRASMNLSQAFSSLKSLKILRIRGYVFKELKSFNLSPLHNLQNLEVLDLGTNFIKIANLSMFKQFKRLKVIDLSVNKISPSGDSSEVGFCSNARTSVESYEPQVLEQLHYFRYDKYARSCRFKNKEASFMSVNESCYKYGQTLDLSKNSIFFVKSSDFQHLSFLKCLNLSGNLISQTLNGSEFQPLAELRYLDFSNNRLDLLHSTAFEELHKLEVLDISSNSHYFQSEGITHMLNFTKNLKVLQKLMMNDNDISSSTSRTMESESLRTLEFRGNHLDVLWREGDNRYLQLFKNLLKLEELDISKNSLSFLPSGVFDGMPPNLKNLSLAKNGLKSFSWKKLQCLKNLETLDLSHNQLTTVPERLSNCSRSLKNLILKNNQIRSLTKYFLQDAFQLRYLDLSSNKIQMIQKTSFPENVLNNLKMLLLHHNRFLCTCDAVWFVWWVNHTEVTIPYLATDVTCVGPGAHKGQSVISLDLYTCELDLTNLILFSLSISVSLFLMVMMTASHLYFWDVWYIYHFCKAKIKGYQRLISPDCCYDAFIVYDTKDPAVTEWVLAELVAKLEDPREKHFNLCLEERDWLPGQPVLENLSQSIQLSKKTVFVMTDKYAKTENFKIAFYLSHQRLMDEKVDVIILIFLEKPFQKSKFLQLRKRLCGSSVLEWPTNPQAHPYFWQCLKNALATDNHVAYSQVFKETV
assay_name: HEK293-Blue-hTLR-7 cells assay (SEAP reporter, R848 stimulation)
reported_conditions: HEK293-Blue-hTLR7 cells, R848, 20 hrs; lowest tested concentration 0.0032
property_measured: IC50 (nM)
Give bare numbers, in nM.

Here is how some compounds turned out for IC50.
compound: C[C@H]1C[C@@H](NCc2ccc3c(n2)CCNC3)CN(c2ccc(C#N)c3ncccc23)C1 [Example 30]
uom: nM
IC50: 16

compound: Cc1cc(-c2ccc(CN[C@@H]3C[C@H](C)CN(c4ccc(C#N)c5ncccc45)C3)cc2)cc(C)n1 [Example 15]
uom: nM
IC50: 84

compound: C[C@H]1C[C@@H](NCc2ccc(N3CCNCC3)cc2F)CN(c2ccc(C#N)c3ncccc23)C1 [Example 4]
uom: nM
IC50: 13

Okay, here is my list. What is IC50 for each of these?
1. C[C@H]1C[C@@H](NCc2ccc(N3CCC(N)C3)cc2)CN(c2ccc(C#N)c3ncccc23)C1 (some centres unmarked) [Example 13]
2. C[C@H]1C[C@@H](NCc2cnc(N3CCN(C)CC3)nc2)CN(c2ccc(C#N)c3ncccc23)C1 [Example 16]
3. C[C@H]1C[C@@H](NCc2ccc(N3CCN(C)CC3)cn2)CN(c2ccc(C#N)c3ncsc23)C1 [Example 18]
4. C[C@H]1C[C@@H](NCc2ccc(N3CCNCC3)cc2)CN(c2ccc(C#N)c3ncccc23)C1 [Example 1]

1. 19
2. 11
3. 11
4. 16
